Details: in ethyl formate, 313.15 K
metric: solubility (mole fraction)
Lab note: write the figure by itself, no unit.

Task item: // query solubility (mole fraction) value for entry CC1CCC(=O)C1=O (stereo unspecified)
Reply: 0.239

---

Settings: in ethyl acetate, 303.15 K
metric: solubility (mole fraction)
Simply state the number, no unit and no words.

Task item: Need solubility (mole fraction), item CC1CCC(=O)C1=O (stereo unspecified)
Reply: 0.156

---

Conditions: in 1,2-dichloroethane, 283.15 K
metric: solubility (mole fraction)
// return just the number, without any unit appended

Task item: Need solubility (mole fraction) of CC1CCC(=O)C1=O (stereo unspecified) , thanks.
Reply: 0.0773

---

Settings: in n-propanol, 303.15 K
metric: solubility (mole fraction)
Form: value (number only, do not type unit).

Task item: Look up solubility (mole fraction): CC1CCC(=O)C1=O (stereo unspecified)
Reply: 0.113

---

Settings: in ethyl acetate, 313.15 K
metric: solubility (mole fraction)

Task item: What does the record list as solubility (mole fraction) for CC1CCC(=O)C1=O (stereo unspecified) ?
Reply: 0.251

---

Details: in ethanol, 308.15 K
metric: solubility (mole fraction)
Output: the number by itself.

Task item: I'd like to know its solubility (mole fraction). The compound in question is CC1CCC(=O)C1=O (stereo unspecified)
Reply: 0.145

---

Details: in n-propanol, 283.15 K
metric: solubility (mole fraction)
# print the numeric value only

Task item: Need solubility (mole fraction) of CC1CCC(=O)C1=O (stereo unspecified) , thanks.
Reply: 0.0474

---

Details: in dichloromethane, 288.15 K
metric: solubility (mole fraction)
When you answer, write just the number.

Task item: For the compound shown here, CC1CCC(=O)C1=O (stereo unspecified) , give the reported solubility (mole fraction).
Reply: 0.145

---

Conditions: in n-butanol, 308.15 K
metric: solubility (mole fraction)
Lab note: jot the number down without any unit.

Task item: Dear colleague, I am looking for the recorded solubility (mole fraction) of the following compound: CC1CCC(=O)C1=O (stereo unspecified)
Reply: 0.133

---

Conditions: in acetonitrile, 278.15 K
metric: solubility (mole fraction)

Task item: Sample CC1CCC(=O)C1=O (stereo unspecified) — what was its solubility (mole fraction)?
Reply: 0.0331

---

Details: in isopropanol, 293.15 K
metric: solubility (mole fraction)

Task item: Consider the compound CC1CCC(=O)C1=O (stereo unspecified) and give its measured solubility (mole fraction).
Reply: 0.0768

---

Conditions: in acetone, 298.15 K
metric: solubility (mole fraction)
// return just the number, without any unit appended

Task item: // solubility (mole fraction) lookup, key: CC1CCC(=O)C1=O (stereo unspecified)
Reply: 0.182

---

Settings: in ethyl formate, 303.15 K
metric: solubility (mole fraction)
Could you respond with only the numeric value?

Task item: Please give the measured solubility (mole fraction) for this compound: CC1CCC(=O)C1=O (stereo unspecified)
Reply: 0.147

---

Settings: in isopropanol, 288.15 K
metric: solubility (mole fraction)
Please reply with the value in numeric form only.

Task item: Report solubility (mole fraction) for CC1CCC(=O)C1=O (stereo unspecified) please.
Reply: 0.0599

---

Settings: in ethanol, 283.15 K
metric: solubility (mole fraction)

Task item: Can you share its solubility (mole fraction)? I mean this molecule: CC1CCC(=O)C1=O (stereo unspecified)
Reply: 0.0503

---

Conditions: in ethanol, 303.15 K
metric: solubility (mole fraction)
I only need the number, thanks.

Task item: Look up solubility (mole fraction): CC1CCC(=O)C1=O (stereo unspecified)
Reply: 0.111
